# Tested System: Ectonucleotide pyrophosphatase/phosphodiesterase family member 1 (Homo sapiens, UniProt P22413)
# Sequence (P22413 whole entry): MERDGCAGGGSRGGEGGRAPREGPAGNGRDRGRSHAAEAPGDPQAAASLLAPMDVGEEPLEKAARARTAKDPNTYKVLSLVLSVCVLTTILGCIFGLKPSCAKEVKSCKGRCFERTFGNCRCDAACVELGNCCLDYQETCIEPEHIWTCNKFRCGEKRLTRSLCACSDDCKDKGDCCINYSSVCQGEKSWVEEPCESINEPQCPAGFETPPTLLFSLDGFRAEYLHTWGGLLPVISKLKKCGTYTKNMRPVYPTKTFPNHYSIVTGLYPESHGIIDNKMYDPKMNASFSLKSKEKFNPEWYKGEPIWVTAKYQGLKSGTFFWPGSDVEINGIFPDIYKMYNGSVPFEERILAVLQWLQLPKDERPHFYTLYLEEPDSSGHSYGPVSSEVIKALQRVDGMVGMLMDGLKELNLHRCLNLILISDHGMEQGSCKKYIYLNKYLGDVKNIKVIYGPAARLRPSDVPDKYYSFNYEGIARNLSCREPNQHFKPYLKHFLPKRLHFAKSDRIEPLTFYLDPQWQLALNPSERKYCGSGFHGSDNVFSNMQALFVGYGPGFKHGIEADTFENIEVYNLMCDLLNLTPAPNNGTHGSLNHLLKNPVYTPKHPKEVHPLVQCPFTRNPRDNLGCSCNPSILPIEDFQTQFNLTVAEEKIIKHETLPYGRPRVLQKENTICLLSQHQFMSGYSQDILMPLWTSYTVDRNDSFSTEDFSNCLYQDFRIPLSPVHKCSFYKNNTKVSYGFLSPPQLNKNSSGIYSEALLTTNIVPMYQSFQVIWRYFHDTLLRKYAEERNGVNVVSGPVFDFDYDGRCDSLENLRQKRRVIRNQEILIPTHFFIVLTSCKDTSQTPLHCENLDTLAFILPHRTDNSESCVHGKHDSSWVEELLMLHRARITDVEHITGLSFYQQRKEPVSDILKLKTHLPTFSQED
# Run Description: Competitive inhibition of human NPP1 using p-Nph-5'-TMP as substrate by Lineweaver-Burk plot analysis
Quantity Name: Ki (nM)

P: CCOc1nc(N)nc2[nH]c(SCC(=O)Nc3ccc(OC)c(OC)c3)nc12
Q: COc1ccc(NC(=O)CSc2nc3c(SC)nc(N)nc3[nH]2)cc1OC
R: COc1ccc(NC(=O)CSc2nc3c(OC(C)C)nc(N)nc3[nH]2)cc1OC
S: COc1ccc(NC(=O)CSc2nc3ccc[nH]c-3n2)cc1OC
Falling order of Ki, please. The response must list the labels following the requested ordering.
R, Q, P, S
